What MIC was measured for each of the following?
System: Aspergillus fumigatus
Assay: Minimum inhibitory concentration (MIC) against Aspergillus fumigatus
Format: functional
Give bare numbers, in µg/mL.

# COMPOUND, TEST_RESULT
measured = [
    ("C=C(c1cc(Cl)ccc1OCCC)n1ccnc1", 0.8),
    ("C=C(c1cc(Cl)ccc1OCc1ccsc1Cl)n1ccnc1", 6.2),
    ("C=C(c1ccccc1OCC)n1ccnc1", 3.1),
    ("C=C(c1ccccc1OCc1ccc(OC)cc1)n1ccnc1", 6.2),
    ("C=C(c1ccccc1OCc1ccc(C)cc1)n1ccnc1", 3.1),
]

Kindly give each listed record's MIC.
1. C=C(c1cc(Cl)ccc1OC(C)c1ccc(Cl)cc1)n1ccnc1 (stereo unspecified)
2. CC(C)=C(c1ccccc1OCCCc1ccccc1)n1ccnc1
3. C=C(c1cc(Cl)ccc1OCCCc1ccccc1)n1ccnc1
4. C=C(c1ccccc1N(Cc1ccc(Cl)cc1)C(=O)C(F)(F)F)n1ccnc1
5. C=C(c1cc(Cl)ccc1OCCCC)n1ccnc1
6. C=C(c1ccccc1OCC(C)C)n1ccnc1

[12.5, 1.6, 1.6, 50, 0.4, 1.6]

Could I get MIC for every one of these entries?
1. C=C(c1ccccc1OCc1ccsc1)n1ccnc1
2. C=C(c1cc(Cl)ccc1OC)n1ccnc1
3. C=C(c1ccccc1OCCCSc1ccc(Cl)cc1)n1ccnc1
4. CC(C)=C(c1ccccc1OCC(C)(C)C)n1ccnc1
5. C=C(c1cc(Cl)ccc1OC(C)c1ccccc1)n1ccnc1 (stereo unspecified)
6. C=C(c1ccccc1OCc1ccc(Cl)cc1)n1ccnc1

[3.1, 3.1, 3.1, 6.3, 6.3, 3.1]

State, in one line, measured MIC of `C=C(c1ccccc1OCc1ccc(Cl)c(Cl)c1)n1ccnc1` 3.1

----------
Tested on: Trichophyton rubrum
Experiment: Minimum inhibitory concentration against Trichophyton rubrum IFO 5807
Format: functional
READOUT_TYPE: MIC

Some solved entries appear below for comparison.
# ITEM_SMILES, MIC
rows = [
    ("C=C(c1cc(Cl)ccc1OCc1ccc(Cl)cc1)n1ccnc1", "0.8 µg/mL"),
    ("C=C(c1ccccc1OCc1cccc(Cl)c1)n1ccnc1", "0.4 µg/mL"),
    ("C=C(c1cc(Cl)ccc1OCc1ccccc1)n1ccnc1", "0.8 µg/mL"),
]

Let us examine a further case.
Tell me measured MIC for `CC(C)=C(c1ccccc1OCc1ccc(Cl)cc1)n1ccnc1` please. 0.8 µg/mL

----------
Test system: Aspergillus fumigatus
Test: Minimum inhibitory concentration (MIC) against Aspergillus fumigatus
Format: functional
So I've got a bunch of compounds here, and I need their MIC values.
One number for each entry, in µg/mL.

# COMPOUND, TEST_RESULT
data = [
    ("C=C(c1ccccc1OCc1ccsc1Cl)n1ccnc1", 1.6),
    ("C=C(c1cc(Cl)ccc1OC(CC)c1ccccc1)n1ccnc1 (configuration not stated)", 12.5),
    ("CC(C)=C(c1cc(Cl)ccc1OCc1ccc(Cl)cc1)n1ccnc1", 6.2),
    ("C=C(c1cc(Cl)cc(Cl)c1OCc1ccsc1Cl)n1ccnc1", 50),
    ("CC(C)=C(c1ccccc1OCCCOc1ccc(Cl)cc1)n1ccnc1", 6.2),
]

Dear colleague, could you please provide MIC for the compounds listed below?
1. C=C(c1ccccc1OCc1ccccc1Cl)n1ccnc1
2. CCCOc1ccc(Cl)cc1C(=C(C)C)n1ccnc1
3. C=C(c1ccccc1OCCOc1ccccc1)n1ccnc1
4. C=C(c1ccccc1OCCC(C)C)n1ccnc1
5. CCCOc1ccccc1C(=C(C)C)n1ccnc1

0.8
6.3
12.5
0.4
0.8

Return MIC for the following compound: `C=C(c1cccc(OCc2ccc(Cl)cc2)c1)n1ccnc1` 12.5

----------
Give measured minimal effective concentration for each item. Keep answers brief.
Tested on: Candida albicans
Test: Inhibition of pseudomycelium formation of Candida albicans.
Assay type: functional
Conditions: read-out: MEC

Could you tell me minimal effective concentration for each of these molecules? They are listed below.
1. C/C=C(/c1cc(Cl)ccc1OCCC)n1ccnc1
2. CC(C)COc1ccccc1/C(=C\CN1CCOCC1)n1ccnc1
3. C=C(c1cccc(OCc2ccc(Cl)cc2)c1)n1ccnc1
4. CCCOc1ccccc1/C(=C\CN(C)C)n1ccnc1
5. CN(C)C/C=C(\c1ccccc1OCc1ccc(Cl)cc1)n1ccnc1
6. C=C(c1cc(Cl)ccc1OC(C)C)n1ccnc1
7. CC(C)COc1ccccc1/C(=C\CN(C)C)n1ccnc1

["0.63 µg/mL", "2.5 µg/mL", "5 µg/mL", "0.31 µg/mL", "1.25 µg/mL", "5 µg/mL", "0.16 µg/mL"]

Please give minimal effective concentration, item by item, for the list that follows.
1. C=C(c1ccccc1OCC(C)C)n1ccnc1
2. CCCOc1ccccc1C(=C(C)C)n1ccnc1
3. C/C(CN(C)C)=C(\c1ccccc1OCC(C)C)n1ccnc1
4. C/C(CN(C)C)=C(/c1ccccc1OCC(C)C)n1ccnc1
5. CCC(CC)=C(c1cc(Cl)ccc1OCCC(C)C)n1cncn1

0.63 µg/mL
0.31 µg/mL
0.63 µg/mL
1.25 µg/mL
1.25 µg/mL

Report minimal effective concentration for every entry below.
1. C=C(c1ccc(Cl)cc1)n1ccnc1
2. C=C(c1ccccc1N(Cc1ccc(Cl)cc1)C(=O)C(F)(F)F)n1ccnc1
3. C=C(c1ccccc1OCCc1ccccc1)n1ccnc1
4. CCC(CC)=C(c1cc(Cl)ccc1OCc1ccc(Cl)cc1)n1cncn1
5. C=C(c1ccccc1)n1ccnc1

["> 20 µg/mL", "20 µg/mL", "1.25 µg/mL", "20 µg/mL", "> 20 µg/mL"]

// input: 2 molecules below; output: minimal effective concentration for each
1. C=C(c1ccccc1OCCC(C)C)n1ccnc1
2. CC(C)COc1ccccc1/C(=C/CN(C)c1ccccc1)n1ccnc1

["0.63 µg/mL", "5 µg/mL"]

----------
System: Candida albicans
Assay: Inhibition of pseudomycelium formation of Candida albicans.
Format: functional
Details: read-out: MEC
READOUT_TYPE: minimal effective concentration (µg/mL)
One number for each entry, in µg/mL.

# ITEM_SMILES, TEST_RESULT
rows = [
    ("C/C=C(\\c1cc(Cl)ccc1OCCC)n1ccnc1", 0.63),
]

Give measured minimal effective concentration for every item shown.
1. C=C(c1cc(Cl)ccc1OCC(C)C)n1ccnc1
2. CC(C)COc1ccc(Cl)cc1/C(=C\CN(C)C)n1ccnc1
3. CC(C)COc1ccccc1/C(=C/CN(C)C)n1ccnc1
4. CCCCOc1ccccc1C(=C(C)C)n1ccnc1
5. C=C(c1ccccc1OCc1ccsc1Cl)n1ccnc1

1.25
2.5
5
0.31
0.8

Fill in minimal effective concentration for each of the 5 molecules listed.
1. CCC(CC)=C(c1cc(Cl)ccc1OC)n1cncn1
2. C=C(c1cc(Cl)ccc1OCCC(C)C)n1cncn1
3. CC(C)COc1ccc(Cl)cc1/C(=C\CN(C)C)n1cncn1
4. CCCOc1ccc(Cl)cc1C(=C(C)C)n1ccnc1
5. CC(C)=C(c1ccccc1OCC(C)(C)C)n1ccnc1

1. 1.25
2. 20
3. 0.31
4. 0.31
5. 0.31

----------
System: Aspergillus fumigatus
Assay: Minimum inhibitory concentration (MIC) against Aspergillus fumigatus
Assay type: functional
READOUT_TYPE: MIC

Go through the list and state MIC for each entry.
1. C=C(c1ccccc1NCc1ccc(Cl)cc1)n1ccnc1
2. C=C(c1ccccc1OCc1cccc(Cl)c1)n1ccnc1
3. CC(c1ccccc1)(n1ccnc1)n1ccnc1

> 100 µg/mL
3.1 µg/mL
> 100 µg/mL

----------
Tested on: Aspergillus fumigatus
Test: Minimum inhibitory concentration (MIC) against Aspergillus fumigatus
Assay type: functional
READOUT_TYPE: log10 MIC (log10 of the value in µg/mL)
Base-10 log of MIC, unit µg/mL.

# MOLECULE, log10 MIC
data = [
    ("C=C(c1ccccc1OCCC)n1ccnc1", 0.20),
    ("C=C(c1ccccc1SCc1ccc(Cl)cc1)n1ccnc1", -0.10),
    ("CC(C)=C(c1cc(Cl)ccc1OCc1ccc(Cl)c(Cl)c1)n1ccnc1", 0.79),
    ("CC(C)=C(c1ccccc1OCc1cccc(Cl)c1)n1ccnc1", 0.49),
    ("C=C(c1ccccc1OCCCc1ccc(Cl)cc1)n1ccnc1", -0.10),
    ("CCCCOc1ccccc1C(=C(C)C)n1ccnc1", 0.20),
    ("C=C(c1ccccc1OCCc1ccc(Cl)cc1Cl)n1ccnc1", -0.40),
    ("C=C(c1ccccc1OCCc1ccccc1)n1ccnc1", -0.40),
    ("CC=C(c1cc(Cl)ccc1OCc1ccc(Cl)cc1Cl)n1ccnc1", -0.40),
    ("C=C(c1ccccc1OC(C)c1cccc(Cl)c1)n1ccnc1 (centres undefined)", 1.10),
]

Below is a list of molecules. For each, state its recorded log10 MIC.
1. CC=C(c1cc(Cl)ccc1OCc1ccccc1)n1ccnc1
2. C=C(c1ccccc1OCc1ccc(CC)cc1)n1ccnc1

[0.49, 1.40]
